test system: U2OS; assay: Multiplex assay against U2OS; assay type: toxicity, cell-based; details: human, 48 h, 10 µM, compound concentration 10 uM, replicate 2
Each item that follows carries a reported Population Apoptotic (%).
measured attribute: Population Apoptotic (%)

# molecule, measured attribute, observed
records = [
    ("CN(C)CCCc1cc(C(=O)Nc2ccc(-c3ccncc3)cc2)ccc1O.Cl.Cl", "Population Apoptotic (%)", 68),
    ("CN(C)c1ccnc2sc3c(=O)n(N4CCCCCC4)cnc3c12", "Population Apoptotic (%)", 72),
    ("CC(=O)NCCc1c(Cc2ccccc2)[nH]c2ccccc12 [LUZINDOLE]", "Population Apoptotic (%)", 100),
    ("C[C@@H]1C[C@H]2[C@@H]3CCC4=CC(=O)C=C[C@]4(C)[C@@]3(F)[C@@H](O)C[C@]2(C)[C@@]1(O)C(=O)CO [DEXAMETHASONE]", "Population Apoptotic (%)", 86),
    ("O=C(O)c1cc2ccccc2c(Cc2c(O)c(C(=O)O)cc3ccccc23)c1O [PAMOIC ACID]", "Population Apoptotic (%)", 89),
    ("CC(C)(C)c1ccc(S(=O)(=O)Nc2ccc(Cl)cc2C(=O)c2cc[n+]([O-])cc2)cc1 [VERCIRNON]", "Population Apoptotic (%)", 77),
    ("O=C(NCC(=O)N1CC[C@H](N[C@H]2CC[C@@](O)(c3ccc(-c4ncccn4)cn3)CC2)C1)c1cccc(C(F)(F)F)c1 [PF-4136309]", "Population Apoptotic (%)", 92),
    ("Oc1c(CN2CCN(c3ccccn3)CC2)cc(Cl)c2cccnc12", "Population Apoptotic (%)", 100),
    ("O=C(O)Cc1ccccc1Nc1c(Cl)cccc1Cl [DICLOFENAC]", "Population Apoptotic (%)", 100),
    ("CCOc1c2c(c(OCC)c3ncccc13)CN(c1ccc(CS(=O)(=O)NC(=O)Cc3ccccc3OC)cc1C)C2=O", "Population Apoptotic (%)", 100),
    ("CNC[C@H](O)c1ccc(O)c(O)c1 [EPINEPHRINE]", "Population Apoptotic (%)", 94),
    ("C[C@H](NC(=O)c1c(C(F)F)nn(C)c1Oc1cccc(C(F)(F)F)c1)c1ccc(C(=O)O)cc1 [PALUPIPRANT]", "Population Apoptotic (%)", 85),
    ("COc1ccc2c(c1)C(C(=O)N(Cc1ccc(N(C)C)cc1)c1ccc(C(C)C)cc1)CCC2.Cl (configuration not stated)", "Population Apoptotic (%)", 92),
    ("O=S(=O)(c1ccccc1)c1cnc2c(N3CCNCC3)cccc2c1 [INTEPIRDINE]", "Population Apoptotic (%)", 95),
    ("C[C@H]1[C@H]2CC[C@H]3[C@@H]4CC=C5C[C@@H](N(C)C)CC[C@]5(C)[C@H]4CC[C@]23CN1C [CONESSINE]", "Population Apoptotic (%)", 85),
    ("O=C1COc2nccc(-c3ccccc3F)c2CN1Cc1cc(C(F)(F)F)cc(C(F)(F)F)c1", "Population Apoptotic (%)", 85),
    ("N[C@@]1(C(=O)O)CO[C@H]2[C@H](C(=O)O)[C@H]21 [LY-379268]", "Population Apoptotic (%)", 90),
    ("CCCn1c(=O)c2[nH]c(C3CCCC3)nc2n(CCC)c1=O", "Population Apoptotic (%)", 100),
    ("CCCC(CCC)C(=O)O [VALPROIC ACID]", "Population Apoptotic (%)", 93),
    ("Cc1ccc(F)cc1C(=O)Nc1ccc(C(=O)N2Cc3cccn3Cc3ccccc32)c(Cl)c1 [LIXIVAPTAN]", "Population Apoptotic (%)", 92),
    ("COc1cc(NC(=O)CCN2CCC(OC(=O)Nc3ccccc3-c3ccccc3)CC2)c(Cl)cc1CNC[C@H](O)c1ccc(O)c2[nH]c(=O)ccc12 [BATEFENTEROL]", "Population Apoptotic (%)", 94),
    ("c1cc(OCCCN2CCCCC2)ccc1CN1CCCCC1 [JNJ-5207852]", "Population Apoptotic (%)", 93),
]

* * *

Overview of reported Population Normal (%) across a group of compounds:
tested on: HEK-293T; test: Multiplex assay against HEK293T; assay type: toxicity, cell-based; settings: human, 12 h, 1 µM, compound concentration 1 uM, replicate 1

# compound, Population Normal (%)
data = [
    ("CC[C@H]1OC(=O)[C@H](C)[C@@H](O[C@H]2C[C@@](C)(OC)[C@@H](O)[C@H](C)O2)[C@H](C)[C@@H](O[C@@H]2O[C@H](C)C[C@H](N(C)C)[C@H]2O)[C@@]2(C)CC(C)=C(O2)[C@H](C)[C@@H](O)[C@]1(C)O", 93),
    ("Cc1ccc(/C(=C\\CN2CCCC2)c2ccccn2)cc1", 92),
    ("CCOc1c2c(c(OCC)c3ncccc13)CN(c1ccc(CS(=O)(=O)NC(=O)Cc3ccccc3OC)cc1C)C2=O", 93),
    ("CNC[C@H](O)c1ccc(O)c(O)c1 [EPINEPHRINE]", 92),
    ("Cc1nc2ccc(Oc3ccc(F)cc3)cc2c(=O)n1C[C@H]1CCCN(C(C)C)C1.Cl", 93),
    ("Cc1ccccc1C(=O)Nc1ccc(C(=O)N2CCCC(N(C)C)c3ccccc32)cc1.Cl (stereo unspecified)", 91),
    ("O=S(=O)(c1ccccc1)c1cnc2c(N3CCNCC3)cccc2c1 [INTEPIRDINE]", 92),
    ("N[C@@]1(C(=O)O)CO[C@H]2[C@H](C(=O)O)[C@H]21", 94),
    ("C[C@@H]1C[C@H]2[C@@H]3CCC4=CC(=O)C=C[C@]4(C)[C@@]3(F)[C@@H](O)C[C@]2(C)[C@@]1(O)C(=O)CO", 97),
    ("CCNC1(C(N)=O)CCN(c2ncnc3c2nc(-c2ccccc2Cl)n3-c2ccc(Cl)cc2)CC1", 89),
    ("C[C@H](NC(=O)c1c(C(F)F)nn(C)c1Oc1cccc(C(F)(F)F)c1)c1ccc(C(=O)O)cc1", 92),
    ("Cl.Clc1ccc2nsnc2c1NC1=NCCN1 [TIZANIDINE HYDROCHLORIDE]", 91),
    ("CC(C)(C)c1ccc(S(=O)(=O)Nc2ccc(Cl)cc2C(=O)c2cc[n+]([O-])cc2)cc1", 92),
    ("c1cc(OCCCN2CCCCC2)ccc1CN1CCCCC1", 94),
    ("COc1c(C)cc(NC(=O)c2nn(Cc3ccc(F)cc3)c3c2CN(C(=O)c2ccc[nH]2)C[C@]3(C)C(N)=O)cc1C", 92),
    ("CN1CCN(c2nc3cc(C(F)(F)F)ccc3n3cccc23)CC1.O=C(O)/C=C\\C(=O)O.O=C(O)/C=C\\C(=O)O", 89),
    ("CN(C)c1ccnc2sc3c(=O)n(N4CCCCCC4)cnc3c12", 95),
    ("O=C(NCC(=O)N1CC[C@H](N[C@H]2CC[C@@](O)(c3ccc(-c4ncccn4)cn3)CC2)C1)c1cccc(C(F)(F)F)c1", 95),
    ("O=C1COc2nccc(-c3ccccc3F)c2CN1Cc1cc(C(F)(F)F)cc(C(F)(F)F)c1", 94),
    ("CC(=O)NCCc1c(Cc2ccccc2)[nH]c2ccccc12", 88),
    ("COc1ccc2c(c1)C(C(=O)N(Cc1ccc(N(C)C)cc1)c1ccc(C(C)C)cc1)CCC2.Cl (stereo unspecified)", 92),
    ("CN(C)CCCc1cc(C(=O)Nc2ccc(-c3ccncc3)cc2)ccc1O.Cl.Cl", 90),
    ("CCCn1c(=O)c2[nH]c(C3CCCC3)nc2n(CCC)c1=O", 93),
    ("Cc1ccc(-c2ccc(F)cc2COc2ccc(CCC(=O)O)cc2)cc1", 90),
    ("Cc1ccc(F)cc1C(=O)Nc1ccc(C(=O)N2Cc3cccn3Cc3ccccc32)c(Cl)c1", 92),
    ("C[C@H]1[C@H]2CC[C@H]3[C@@H]4CC=C5C[C@@H](N(C)C)CC[C@]5(C)[C@H]4CC[C@]23CN1C", 93),
    ("CN1CCN2c3ncccc3Cc3ccccc3C2C1 (stereo unspecified)", 94),
    ("CCCN1CCC[C@@H]2Cc3n[nH]cc3C[C@H]21.Cl [QUINPIROLE HYDROCHLORIDE]", 93),
    ("CCCC(CCC)C(=O)O", 93),
    ("O=C(NCCO)c1cccc(-c2cc(Nc3ccc(OC(F)(F)F)cc3)ncn2)c1", 91),
    ("CC1(COc2ccc3c(c2)ncn3-c2ccc3cccc(N4CCC(N)CC4)c3n2)COC1", 96),
]

* * *

test system: HEK-293T; test: Multiplex assay against HEK293T; type: toxicity, cell-based; conditions: human, 24 h, 1 µM, compound concentration 1 uM, replicate 2
Could you mark each record label 1 if its Population Mitotic Cells (%) falls strictly under 60%, and label 0 if it equals or exceeds it?

# compound, class label
records = [
    ("O=C1COc2nccc(-c3ccccc3F)c2CN1Cc1cc(C(F)(F)F)cc(C(F)(F)F)c1", "label 1"),
    ("O=C(NCCO)c1cccc(-c2cc(Nc3ccc(OC(F)(F)F)cc3)ncn2)c1", "label 1"),
    ("CN1CCN(c2nc3cc(C(F)(F)F)ccc3n3cccc23)CC1.O=C(O)/C=C\\C(=O)O.O=C(O)/C=C\\C(=O)O", "label 1"),
    ("CCOc1c2c(c(OCC)c3ncccc13)CN(c1ccc(CS(=O)(=O)NC(=O)Cc3ccccc3OC)cc1C)C2=O", "label 0"),
    ("Cc1ccc(F)cc1C(=O)Nc1ccc(C(=O)N2Cc3cccn3Cc3ccccc32)c(Cl)c1", "label 0"),
    ("COc1ccc2c(c1)C(C(=O)N(Cc1ccc(N(C)C)cc1)c1ccc(C(C)C)cc1)CCC2.Cl (centres undefined)", "label 1"),
    ("CN(C)CCCc1cc(C(=O)Nc2ccc(-c3ccncc3)cc2)ccc1O.Cl.Cl", "label 0"),
    ("c1cc(OCCCN2CCCCC2)ccc1CN1CCCCC1", "label 1"),
    ("COc1ccccc1N1CCN(CCCCNC(=O)c2ccc3ccccc3c2)CC1.Cl", "label 0"),
    ("Cc1ccccc1C(=O)Nc1ccc(C(=O)N2CCCC(N(C)C)c3ccccc32)cc1.Cl (centres undefined)", "label 0"),
    ("Cc1ccc(C(C)(O)c2nc3ccccc3s2)c(C)c1 (centres undefined)", "label 0"),
    ("CCCC(CCC)C(=O)O", "label 1"),
    ("CNC[C@H](O)c1ccc(O)c(O)c1 [EPINEPHRINE]", "label 0"),
    ("Cc1ccc(/C(=C\\CN2CCCC2)c2ccccn2)cc1", "label 0"),
    ("COc1c(C)cc(NC(=O)c2nn(Cc3ccc(F)cc3)c3c2CN(C(=O)c2ccc[nH]2)C[C@]3(C)C(N)=O)cc1C", "label 1"),
    ("CSc1ccccc1N1CCN(CCCCCC(=O)NC2CCCc3ccccc32)CC1.Cl (centres undefined)", "label 1"),
    ("Cl.Clc1ccc2nsnc2c1NC1=NCCN1 [TIZANIDINE HYDROCHLORIDE]", "label 1"),
    ("CN(C)c1ccnc2sc3c(=O)n(N4CCCCCC4)cnc3c12", "label 0"),
]
